- Read-out: Monocyte Chemoattractant Protein-1 (MCP1), CCL2 (gene 6347)
- Experiment Description: BSK_3C_MCP1: BioMAP Diversity Plus: 3C Assay for Monocyte Chemoattractant Protein-1 (MCP1) Biomarker Activity (AID 2283017)
- Condition Notes: primary human endothelial cells (HUVEC); actives raise or lower the signal
- Method: BSK_3C is a cell-based, multiplexed-readout assay that uses umbilical vein endothelium, a human vascular primary cell, with measurements taken at 24 hours after chemical dosing in a 96-well plate.BSK_3C_MCP1 is an assay component measured in the BSK_3C assay. It measures MCP-1 antibody related to regulation of gene expression using ELISA technology.Data from the assay component BSK_3C_MCP1 was analyzed into 1 assay endpoint. […]
Calls of active or inactive are those of the source. Rule for the calls: active = hit-call score of the fitted dose curve at least 0.9, where 1 is the maximum; inactive = score below 0.9.
Measured Quantity: AC50

Smiles Repr | AC50
O=C(OCCCCCCOC(=O)c1ccccc1)c1ccccc1 | inactive
Oc1ccc2ccccc2c1 | inactive
COc1ccc2cc(S(=O)(=O)N[C@H](CC(=O)N[C@H](Cc3ccc(CN4[C@H](C)CCC[C@@H]4C)cc3)C(=O)N(C)C(C)C)c3ccc4c(c3)OCO4)ccc2c1 | 12.5 µM (active)
Cc1cn([C@H]2C[C@H](N=[N+]=[N-])[C@@H](CO)O2)c(=O)[nH]c1=O | inactive
c1ccc2n[nH]nc2c1 | inactive

Pending compound:
Please look up its AC50: `CC(C)(c1cc(Br)c(O)c(Br)c1)c1cc(Br)c(O)c(Br)c1`
29.9 µM (active)
